B1: library; numbered along this chain (parent)
chain: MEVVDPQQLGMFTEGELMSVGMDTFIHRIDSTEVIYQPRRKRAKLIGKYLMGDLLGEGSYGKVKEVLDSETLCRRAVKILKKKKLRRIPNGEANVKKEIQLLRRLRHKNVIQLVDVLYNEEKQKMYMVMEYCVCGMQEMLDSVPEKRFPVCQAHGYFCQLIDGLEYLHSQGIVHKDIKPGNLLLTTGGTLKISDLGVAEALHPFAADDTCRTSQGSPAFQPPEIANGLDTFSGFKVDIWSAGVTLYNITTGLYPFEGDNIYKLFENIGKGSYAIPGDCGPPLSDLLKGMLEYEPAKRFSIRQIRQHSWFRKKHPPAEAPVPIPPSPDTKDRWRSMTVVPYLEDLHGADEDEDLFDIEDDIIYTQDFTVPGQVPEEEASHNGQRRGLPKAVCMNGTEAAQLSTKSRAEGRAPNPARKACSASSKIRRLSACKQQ

- Variants of: B1
- assay-notes: STK11 functional score (HeLa growth suppression), rescaled enrichment; synonymous median = 1, nonsense median = 0 (normalised score)
- reported-conditions: with HeLa; variant type: missense
Item-by-item account of STK11 functional score
observable: STK11 functional score

>>> df
    changes  measured
 0    L101Y      1.21
 1     G10D       1.4
 2     L80G     0.429
 3    V128S     0.466
 4    E375F      1.29
 5     Y36T      1.04
 6    T336G      1.15
 7    E351L      1.43
 8     V20R      1.56
 9    F231S     0.515
10     K83I      1.29
11     N94E     0.862
12    S334T      1.18
13    Y272W      1.01
14    P413L      1.31
15     S31A      1.44
16    T336V      1.49
17    R106H      1.62
18    L201R     0.929
19     E14A     0.905
20    P369K      1.42
21    Y253C     0.457
22    M136R    -0.124
23    R211T      1.22
24    G163S     0.402
25    G163Y   -0.0827
26    L263T      1.22
27    A397I      1.51
28    C418I      1.41
29     T71I      1.11
30    N266G     0.477
31    G135P       1.7
32    L184N     0.425
33     L45R      1.18
34     G56Y    -0.102
35    G381W      1.05
36     I99C      1.57
37    E396Q      1.18
38    Q152V      1.19
39    Q123S      1.49
40    Q399W      1.43
41    I274W    0.0744
42    L160G   -0.0371
43    R425D      1.61
44    H313P     0.624
45    D352N      1.09

Cited source: the supplement of paper PMC12338614
